Tested on: SF-268 CNS
Test: NCI tumour cell line growth inhibition, 48 h
quantity: TGI

Recorded TGI, per entry:
| molecule | TGI |
| --- | --- |
| COc1cc(C=C2C(C)=NN(c3cccc(Cl)c3)C23C(Cl)C(=O)N3c2nc3ccccc3s2)ccc1O (stereo not drawn) | 16 µM |
| CN(C)/N=C(/c1nc2ccc([N+](=O)[O-])cc2[nH]c1=O)C(O)c1ccco1 (stereo not drawn) | > 100 µM |
| Clc1ccc(C2=Nn3c(nnc3-c3cc(Cl)cc(Cl)c3Cl)SC2)cc1 | > 100 µM |
| CN1C(=O)[C@@H](NC(=O)[C@H](CCC(F)(F)F)[C@H](CCC(F)(F)F)C(N)=O)N=C(c2ccccc2)c2ccccc21 | > 100 µM |
| CCN(CC)CCCC(C)Nc1nc(C)cc(Nc2ccc3nc(C)cc(N)c3c2)n1 (stereo not drawn) | 50.9 µM |

The molecule `S=C(Nc1ccc(Cl)cc1)Nc1ccc(-c2nc3ccccc3o2)cc1` , when measured on SF-268 CNS, yielded TGI of 76.7 µM

Where do these numbers come from? They come from PubChem BioAssay (NCI).
